System: Bacillus anthracis
Assay: Antibacterial activity against Bacillus anthracis after overnight incubation by microbroth dilution assay
Assay type: functional
measurement-type: MIC90 (µg/mL)

[
  {
    "molecule": "O=C(CCCCCCCCCCc1ccccc1)NS(=O)(=O)Oc1ccccc1",
    "measurement-type": "MIC90",
    "meas-value": 3.13
  },
  {
    "molecule": "CCCCCCCCCCCCCCCC(=O)NS(=O)(=O)Oc1ccccc1 [PHENYL PALMITOYLSULFAMATE]",
    "measurement-type": "MIC90",
    "meas-value": 3.13
  },
  {
    "molecule": "CCCCCCCCCCCCCCCC(=O)NS(=O)(=O)Oc1ccc(Cl)cc1",
    "measurement-type": "MIC90",
    "meas-value": 6.25
  },
  {
    "molecule": "O=C(/C=C/c1ccc(-c2ccccc2)cc1)NS(=O)(=O)Oc1ccccc1",
    "measurement-type": "MIC90",
    "meas-value": 100
  },
  {
    "molecule": "O=C(CCCCCCc1ccccc1)NS(=O)(=O)Oc1ccccc1",
    "measurement-type": "MIC90",
    "meas-value": 12.5
  }
]
